Give measured pIC50 for each item. Keep answers brief.
# Tested on: HepG2
# protocol_details: Antiproliferative activity against human HepG2 cells assessed as reduction in cell viability incubated for 24 hrs by MTT assay
# Type: functional, cell-based
# protocol_conditions: HepG2, 24 h
Quick note: pIC50 values are minus log10 of concentrations in mol/L.

Just so you know, measured pIC50 for CC(=O)O[C@H]1C=C([C@H](C)[C@H]2CC(C)=C(C)C(=O)O2)[C@@]2(C)CC[C@H]3[C@@H](C[C@H]4O[C@]45[C@@H](OC(=O)C(C)NC(=O)OC(C)(C)C)C=CC(=O)[C@]35C)[C@]12O (stereo not given in full) came out at 5.55

Just so you know, measured pIC50 for CC(=O)O[C@H]1C=C([C@H](C)[C@H]2CC(C)=C(C)C(=O)O2)[C@@]2(C)CC[C@H]3[C@@H](C[C@H]4O[C@]45[C@@H](OC(=O)/C=C/C(=O)N4CCOCC4)C=CC(=O)[C@]35C)[C@]12O came out at 6.43

Just so you know, measured pIC50 for CC(=O)O[C@H]1C=C([C@H](C)[C@H]2CC(C)=C(C)C(=O)O2)[C@@]2(C)CC[C@H]3[C@@H](C[C@H]4O[C@]45[C@@H](OC(=O)N4CCCC4)C=CC(=O)[C@]35C)[C@]12O came out at 5.91

Just so you know, measured pIC50 for CC(=O)O[C@H]1C=C([C@H](C)[C@H]2CC(C)=C(C)C(=O)O2)[C@@]2(C)CC[C@H]3[C@@H](C[C@H]4O[C@]45C(=O)C=CC(=O)[C@]35C)[C@]12O came out at 5.22

Just so you know, measured pIC50 for CCO/C=C/C(=O)O[C@H]1C=CC(=O)[C@]2(C)[C@H]3CC[C@]4(C)C([C@H](C)[C@H]5CC(C)=C(C)C(=O)O5)=C[C@H](OC(C)=O)[C@@]4(O)[C@@H]3C[C@H]3O[C@]132 came out at 6.24
